These data points were gathered from ChEMBL document CHEMBL4513216.

- assay_details: Toxicity liver stage against HepG2, at 10uM
- Format: cell-based
- Parameters: test concentration 10 uM, cell line HepG2-A16-CD81EGFP
- condition_set: human, HepG2-A16-CD81EGFP cells; read-out: INHIBITION
recorded_metric: cytotoxicity at 10 µM (%)
Number only, in %; omit the unit.

-- ask Could you tell me which cytotoxicity at 10 µM is on file for "CCc1nc(C(=O)N2CCN(CCc3ccc(OC)cc3)CC2)c[nH]1" ?
-- reply -9.56

-- ask Could you tell me which cytotoxicity at 10 µM is on file for COCCN1CC(O)CN(C(=O)c2ccc(SC)cc2)CC1=O (stereo not drawn) ?
-- reply -0.53

-- ask Could you tell me which cytotoxicity at 10 µM is on file for "FC(F)(F)c1cccc(C2(CNCc3cc[nH]c3)CCOCC2)c1" ?
-- reply -6.76

-- ask Could you tell me which cytotoxicity at 10 µM is on file for "COc1cccc(C(c2c(C)n[nH]c2O)c2c(C)n[nH]c2O)c1OC" ?
-- reply 12.4

-- ask Could you tell me which cytotoxicity at 10 µM is on file for "COc1cc(N2C[C@@H]3COC[C@]3(COc3ccc(C#N)cn3)C2)ncn1" ?
-- reply 32.2

-- ask Could you tell me which cytotoxicity at 10 µM is on file for "CC(C)CCn1[nH]c(CNc2ccc(Cl)cc2)nc1=O" ?
-- reply 1.33

-- ask Could you tell me which cytotoxicity at 10 µM is on file for "CN(C)CCn1ccc2cc(NC(=O)NCc3ccon3)ccc21" ?
-- reply -2.51
